Assay: Ex vivo degradation of αCT11 in isolated rat plasma
Assay type: in vitro ADME
Settings: isolated heparinised male rat plasma, 22 °C, with 1.5× PTase/PPTase inhibitor cocktail, 100 μM αCT11, 30 min, LC-MS/MS, mean ± SE, n = 3 rats; read-out: percentage of αCT11 (normalized to 0 min)
Description: A third group of rats (including both males and females) was not subjected to either MI or the tail vein injection of αCT11. […] Data were collected at 0 min in triplicate from each group using LC/MS-MS and were first calibrated as 100%; all other data from the same group were then normalized as % change over the data at 0 min. […] All data were expressed as mean ± standard error (SE), if not otherwise specified, with p < 0.05 considered statistically significant. […]
Residues, ends and D or L forms follow the SMILES beside them. *: point of attachment. Biotin = O=C1N[C@H]2[C@H](CS[C@H]2CCCCC(=O)*)N1; Ahx = NCCCCCC(=O)O
readout_label: remaining at 0.5 h, 100 μM (%)
Record the value in %, omitting the unit from your answer.

Ask: // returns reported remaining at 0.5 h, 100 μM for input CC[C@H](C)[C@H](NC(=O)[C@H](CCC(=O)O)NC(=O)[C@H](CC(C)C)NC(=O)[C@H](CC(=O)O)NC(=O)[C@H](CC(=O)O)NC(=O)[C@@H]1CCCN1C(=O)[C@H](CCCNC(=N)N)NC(=O)[C@@H]1CCCN1C(=O)[C@H](CCCNC(=N)N)NC(=O)CCCCCNC(=O)CCCC[C@@H]1SC[C@@H]2NC(=O)N[C@@H]21)C(=O)O [αCT11] ({Biotin-Ahx}-RPRPDDLEI-OH)
Result: 41.6

====

test: Ex vivo degradation of αCT11 in isolated rat plasma; type: in vitro ADME; conditions: isolated heparinised male rat plasma, 37 °C, no inhibitors, 100 μM αCT11, 5 min, LC-MS/MS, mean ± SE, n = 3 rats (9 replicates); read-out: αCT11 level, % of starting concentration (0 min)
Residues, ends and D or L forms follow the SMILES beside them. *: point of attachment. Biotin = O=C1N[C@H]2[C@H](CS[C@H]2CCCCC(=O)*)N1; Ahx = NCCCCCC(=O)O
readout_label: remaining at 5 min, 100 μM (%)
Record the value in %, omitting the unit from your answer.

Ask: // returns reported remaining at 5 min, 100 μM for input CC[C@H](C)[C@H](NC(=O)[C@H](CCC(=O)O)NC(=O)[C@H](CC(C)C)NC(=O)[C@H](CC(=O)O)NC(=O)[C@H](CC(=O)O)NC(=O)[C@@H]1CCCN1C(=O)[C@H](CCCNC(=N)N)NC(=O)[C@@H]1CCCN1C(=O)[C@H](CCCNC(=N)N)NC(=O)CCCCCNC(=O)CCCC[C@@H]1SC[C@@H]2NC(=O)N[C@@H]21)C(=O)O [αCT11] ({Biotin-Ahx}-RPRPDDLEI-OH)
Result: 61.9

====

assay: Ex vivo degradation of αCT11 in isolated rat plasma; type: in vitro ADME; details: isolated heparinised female rat plasma, 22 °C, with 1.5× PTase/PPTase inhibitor cocktail, 100 μM αCT11, 60 min, LC-MS/MS, mean ± SE, n = 3 rats; read-out: percentage of αCT11 (normalized to 0 min)
Residues, ends and D or L forms follow the SMILES beside them. *: point of attachment. Biotin = O=C1N[C@H]2[C@H](CS[C@H]2CCCCC(=O)*)N1; Ahx = NCCCCCC(=O)O
readout_label: remaining at 1 h, 100 μM (%)
Record the value in %, omitting the unit from your answer.

Ask: // returns reported remaining at 1 h, 100 μM for input CC[C@H](C)[C@H](NC(=O)[C@H](CCC(=O)O)NC(=O)[C@H](CC(C)C)NC(=O)[C@H](CC(=O)O)NC(=O)[C@H](CC(=O)O)NC(=O)[C@@H]1CCCN1C(=O)[C@H](CCCNC(=N)N)NC(=O)[C@@H]1CCCN1C(=O)[C@H](CCCNC(=N)N)NC(=O)CCCCCNC(=O)CCCC[C@@H]1SC[C@@H]2NC(=O)N[C@@H]21)C(=O)O [αCT11] ({Biotin-Ahx}-RPRPDDLEI-OH)
Result: 13.2

====

test: Ex vivo degradation of αCT11 in isolated rat plasma; type: in vitro ADME; settings: isolated heparinised male rat plasma, 37 °C, no inhibitors, 100 μM αCT11, 60 min, LC-MS/MS, mean ± SE, n = 3 rats (9 replicates); read-out: αCT11 level, % of starting concentration (0 min)
Residues, ends and D or L forms follow the SMILES beside them. *: point of attachment. Biotin = O=C1N[C@H]2[C@H](CS[C@H]2CCCCC(=O)*)N1; Ahx = NCCCCCC(=O)O
readout_label: remaining at 1 h, 100 μM (%)
Record the value in %, omitting the unit from your answer.

Ask: // returns reported remaining at 1 h, 100 μM for input CC[C@H](C)[C@H](NC(=O)[C@H](CCC(=O)O)NC(=O)[C@H](CC(C)C)NC(=O)[C@H](CC(=O)O)NC(=O)[C@H](CC(=O)O)NC(=O)[C@@H]1CCCN1C(=O)[C@H](CCCNC(=N)N)NC(=O)[C@@H]1CCCN1C(=O)[C@H](CCCNC(=N)N)NC(=O)CCCCCNC(=O)CCCC[C@@H]1SC[C@@H]2NC(=O)N[C@@H]21)C(=O)O [αCT11] ({Biotin-Ahx}-RPRPDDLEI-OH)
Result: 0.04
